- Tested on: SF-268 CNS
- Method: NCI tumour cell line growth inhibition, 48 h
Each entry below carries its reported GI50.

Below are worked cases with known answers.
[[record]]
molecule = "CC1=C(C(=O)Nc2ccc(Cl)c(Cl)c2)C(c2cccc(Oc3ccccc3)c2)NC(=S)N1 (stereo not given)"
subject_of_test = "SF-268 CNS"
property_name = "GI50"
recorded_value = "6.1 µM"

[[record]]
molecule = "COc1ccc(-c2nc3sccn3c2/C(N)=N/C(=N)N)cc1OC"
subject_of_test = "SF-268 CNS"
property_name = "GI50"
recorded_value = "50.3 µM"

[[record]]
molecule = "CC/C=C\\CCC/C=C1/C(=O)C=C[C@@H]1C/C=C\\CCCC(=O)OC"
subject_of_test = "SF-268 CNS"
property_name = "GI50"
recorded_value = "4.79 µM"

[[record]]
molecule = "O=S(=O)(NC1=NCCN1C(=S)SN1CCn2c1nsc2=S)c1ccc(OC(F)(F)F)cc1"
subject_of_test = "SF-268 CNS"
property_name = "GI50"
recorded_value = "11 µM"

[[record]]
molecule = "Cc1ccc(NC2=C(Cl)C(=O)N(Cc3ccccc3)C2=O)cc1O"
subject_of_test = "SF-268 CNS"
property_name = "GI50"
recorded_value = "31.7 µM"


Please look at the following molecule next.
# GI50 (molecule: CCC(CO)Nc1nc2ccc(Cl)cc2c2ccccc12 (stereo not given) ) is 10.7 µM

Where do these numbers come from? They come from PubChem BioAssay (NCI).
